Quick reference: IC50 of the listed items.
# assayed.target: KRas^G12C (Homo sapiens, UniProt P01116, G12C)
# Construct: Biotinylated KRas (corresponding to amino acids 1-169, produced at Accelegan Inc.); biotin (biotinylated); purchased Accelegan Inc
# Sequence (P01116 1-169 isoform P01116-2 G12C): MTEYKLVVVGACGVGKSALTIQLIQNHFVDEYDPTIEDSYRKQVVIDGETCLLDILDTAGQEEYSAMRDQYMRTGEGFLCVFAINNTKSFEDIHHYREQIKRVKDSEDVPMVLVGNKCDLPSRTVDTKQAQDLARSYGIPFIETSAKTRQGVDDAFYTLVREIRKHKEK
# assay.procedure: KRas TR-FRET tracer displacement binding assay, G12C
# test.context: 60-minute incubation

compound	limit.qualifier	IC50 / nM
CC(Oc1nc(N(C)C)c2cc(F)c(-c3ccc(F)c4sc(N)c(C#N)c34)c(F)c2n1)C12CCCN1CCC2 (single isomer, unassigned; isomer 2) [Example 178]	=	20
N#Cc1c(N)sc2c(F)ccc(-c3c(C4CC4)cc4c(N5C[C@H]6CC[C@@H](C5)N6)nc(OC[C@@]56CCCN5C[C@H](F)C6)nc4c3F)c12 [Example 208]	=	7
N#Cc1c(N)sc2c(F)ccc(-c3c(Cl)cc4c(N5CCC5CO)nc(OC[C@@]56CCCN5C[C@H](F)C6)nc4c3F)c12 (stereo partly drawn) [Example 209]	=	4
CN(C)C(=O)c1cc2n(n1)CCCN(c1nc(OC[C@@]34CCCN3C[C@H](F)C4)nc3c(F)c(-c4ccc(F)c5sc(N)c(C#N)c45)c(C4CC4)cc13)C2 [Example 207]	<	2
CC1CN(C)CCCN1c1nc(N(C)C)c2cc(Cl)c(-c3ccc(F)c4sc(N)c(C#N)c34)c(F)c2n1 (stereo not drawn) [Example 217]	=	184
C=Cc1cc2c(N3CCCn4nc(C(=O)N(C)C)cc4C3)nc(OC[C@@]34CCCN3C[C@H](F)C4)nc2c(F)c1-c1ccc(F)c2sc(N)c(C#N)c12 [Example 176]	<	2
Cc1c(F)c(N)nc(-c2c(Cl)cc3c(NC(C)c4cccnc4N)nc(OC[C@@]45CCCN4C[C@H](F)C5)nc3c2F)c1C(F)(F)F (single isomer, unassigned; isomer 2) [Example 173]	=	454
C[C@@]1(O)CCCN(c2nc(OC[C@@]34CCCN3C[C@H](F)C4)nc3c(F)c(-c4ccc(F)c5sc(N)c(C#N)c45)c(F)cc23)C1 [Example 198]	=	12
N#Cc1c(N)sc2c(F)ccc(-c3c(Cl)cc4c(N5CCCCC(F)C5)nc(OC[C@@]56CCCN5C[C@H](F)C6)nc4c3F)c12 (stereo partly drawn) [Example 204]	=	3
N#Cc1c(N)sc2c(F)ccc(-c3c(Cl)cc4c(NCCS(N)(=O)=O)nc(OC[C@@]56CCCN5C[C@H](F)C6)nc4c3F)c12 [Example 201]	=	3
N#Cc1c(N)sc2c(F)ccc(-c3c(Cl)cc4c(N5CCCOC6CC65)nc(OC[C@@]56CCCN5C[C@H](F)C6)nc4c3F)c12 (single isomer, unassigned) [Example 212]	=	6
CC(Oc1nc(N(C)C)c2cc(F)c(-c3ccc(F)c4sc(N)c(C#N)c34)c(F)c2n1)C12CCCN1CCC2 (single isomer, unassigned; isomer 1) [Example 177]	=	36

Measured values drawn from patent US20240025907A1 for this set.
